- System: S. aureus ATCC 25923
- EXPERIMENT_NOTES: Qualitative antimicrobial activity, adapted Kirby-Bauer (inhibition zone)
- Format: cell-based
- COND: 10 μL of 10 mg/mL DMSO stock, mean ± SD
PARAMETER_MEASURED: IZD (mm)
A number alone suffices; assume mm.

Look at this compound and give its reported IZD (mm). COc1ccc(O)c(/C=N/NC(=O)Cn2c(C)nc3ccccc3c2=O)c1
0.00

Look at this compound and give its reported IZD (mm). Cc1nc2ccccc2c(=O)n1CC(=O)N/N=C/c1cc(Br)cc(Br)c1O
12.33

Look at this compound and give its reported IZD (mm). COc1ccc(/C=N/NC(=O)Cn2c(C)nc3ccccc3c2=O)c(O)c1
0.00

Look at this compound and give its reported IZD (mm). Cc1nc2ccccc2c(=O)n1CC(=O)N/N=C/c1cc(Br)ccc1O
0.00

Look at this compound and give its reported IZD (mm). Cc1nc2ccccc2c(=O)n1CC(=O)NN
0.00

Look at this compound and give its reported IZD (mm). COc1cc(/C=N/NC(=O)Cn2c(C)nc3ccccc3c2=O)cc([N+](=O)[O-])c1O
0.00

Look at this compound and give its reported IZD (mm). COc1cccc(/C=N/NC(=O)Cn2c(C)nc3ccccc3c2=O)c1O
7.67
